Source: patent US20220195023A1

target_of_assay: (NVDP)3(NANP)2 (Plasmodium falciparum)
assay_overview: BLI, target on sensor
measurement_kind: pKd
Quick note: pKd means taking -log10 of the concentration in moles per liter.

### Prompt Recall and state the measured pKd for AB-007043 (antibody, V domains shown) VH: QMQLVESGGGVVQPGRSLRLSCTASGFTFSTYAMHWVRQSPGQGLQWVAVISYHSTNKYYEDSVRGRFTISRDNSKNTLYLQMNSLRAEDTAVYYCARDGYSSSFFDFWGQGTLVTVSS VL: DIQMTQSPSTLSASVGDRVAITCRASQSISRWLAWYQQQPGKAPKLLMSGASVLEDGVPSRFSGSGSGTEFTLTISSLQPDDFATYYCQHYNSYFVTFGQGTKVEIK .
### Response 8.28

### Prompt Supply pKd value. Item: AB-007072 (antibody, V domains shown) VH: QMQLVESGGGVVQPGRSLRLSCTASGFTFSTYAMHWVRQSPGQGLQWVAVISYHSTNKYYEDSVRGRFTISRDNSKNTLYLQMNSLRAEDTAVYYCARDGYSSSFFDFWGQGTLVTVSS VL: DIQMTQSPSTLSASVGDRVAITCRASQSISRWLAWYQQQPGKAPKLLMSGASNLESGVPSRFSGSGSGTEFTLTISSLQPDDFATYYCQHYNSYFVTFGQGTKVEIK
### Response 7.84

### Prompt Indicate the recorded pKd value for this binder: AB-007036 (antibody, V domains shown) VH: QMQLVESGGGVVQPGRSLRLSCTASGFTFSTYAMHWVRQSPGQGLQWVAVISYDSTNKYYEDSVRGRFTISRDNSKNTLYLQMNSLRAEDTAVYYCARDGYSSSFFDFWGQGTLVTVSS VL: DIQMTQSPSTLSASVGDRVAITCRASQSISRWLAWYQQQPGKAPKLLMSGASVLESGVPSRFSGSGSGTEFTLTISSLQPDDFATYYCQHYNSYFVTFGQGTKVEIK
### Response 7.76

### Prompt Please look at this binder and report its pKd: AB-007058 (antibody, V domains shown) VH: QMQLVESGGGVVQPGRSLRLSCTASGFTFSTYAMHWVRQSPGQGLQWVAVISYHSTNKYYEDSVRGRFTISRDNSKNTLYLQMNSLRAEDTAVYYCARDGYSTSFFDFWGQGTLVTVSS VL: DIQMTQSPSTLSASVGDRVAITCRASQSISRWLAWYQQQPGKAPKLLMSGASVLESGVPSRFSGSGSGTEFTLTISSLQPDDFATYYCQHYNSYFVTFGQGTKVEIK
### Response 7.37

### Prompt Supply reported pKd belonging to this binder: AB-007044 (antibody, V domains shown) VH: QMQLVESGGGVVQPGRSLRLSCTASGFTFSTYAMHWVRQSPGQGLQWVAVISYHSTNKYYEESVRGRFTISRDNSKNTLYLQMNSLRAEDTAVYYCARDGYSSSFFDFWGQGTLVTVSS VL: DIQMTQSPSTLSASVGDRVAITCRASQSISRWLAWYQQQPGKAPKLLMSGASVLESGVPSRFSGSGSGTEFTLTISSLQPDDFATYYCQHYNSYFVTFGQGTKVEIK
### Response 8.22

### Prompt State its pKd: AB-007047 (antibody, V domains shown) VH: QMQLVESGGGVVQPGRSLRLSCTASGFTFSNYAMHWVRQSPGQGLQWVAVISYHSTNKYYEDSVRGRFTISRDNSKNTLYLQMNSLRAEDTAVYYCARDGYSSSFFDFWGQGTLVTVSS VL: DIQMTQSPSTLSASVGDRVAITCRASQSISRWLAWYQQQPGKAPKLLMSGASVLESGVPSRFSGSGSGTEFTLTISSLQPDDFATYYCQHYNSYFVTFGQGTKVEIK
### Response 8.09

### Prompt Identify the reported pKd for the following entry. AB-007053 (antibody, V domains shown) VH: QMQLVESGGGVVQPGRSLRLSCTASGFTFSTYAMHWVRQSPGQGLQWVAVISYHSTQKYYEDSVRGRFTISRDNSKNTLYLQMNSLRAEDTAVYYCARDGYSSSFFDFWGQGTLVTVSS VL: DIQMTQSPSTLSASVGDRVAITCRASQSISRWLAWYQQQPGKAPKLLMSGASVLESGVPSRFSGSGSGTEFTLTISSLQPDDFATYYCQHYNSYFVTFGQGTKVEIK
### Response 7.59

### Prompt Determine from records and report pKd for AB-007030 (antibody, V domains shown) VH: QMQLVESGGGVVQPGRSLRLSCTASGFTFSTYAMHWVRQSPGQGLEWVAVISYHSTNKYYADSVRGRFTISRDNSKNTLYLQMNSLRAEDTAVYYCARDGYSSSFFDFWGQGTLVTVSS VL: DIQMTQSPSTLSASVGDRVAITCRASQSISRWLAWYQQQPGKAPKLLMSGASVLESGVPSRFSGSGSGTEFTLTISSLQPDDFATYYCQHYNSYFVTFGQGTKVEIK
### Response 8.39

### Prompt Determine its reported pKd: AB-007074 (antibody, V domains shown) VH: QMQLVESGGGVVQPGRSLRLSCAASGFTFSTYAMHWVRQAPGQGLQWVAVISYHSTNKYYEDSVRGRFTISRDNSKNTLYLQMNSLRAEDTAVYYCARDGYSSSFFDFWGQGTLVTVSS VL: DIQMTQSPSTLSASVGDRVTITCRASQSISRWLAWYQQQPGKAPKLLMSGASVLESGVPSRFSGSGSGTEFTLTISSLQPDDFATYYCQHYNSYYVTFGQGTKVEIK
### Response 8.10

### Prompt State its pKd for this binder: AB-007038 (antibody, V domains shown) VH: QMQLVESGGGVVQPGRSLRLSCTASGFTFSTYAMHWVRQSPGQGLQWVAVISYHSTNKYYEDSVRGRFTISRDNSKNTLYLQMNSLRAEDTAVYYCARDGYSSSFFDYWGQGTLVTVSS VL: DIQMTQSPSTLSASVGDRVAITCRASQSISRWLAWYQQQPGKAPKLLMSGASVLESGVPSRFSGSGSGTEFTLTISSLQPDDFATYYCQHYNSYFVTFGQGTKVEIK
### Response 8.24
